MEASURED_ON: T1, Human EphA2-Fc fusion protein (human, UniProt P29317 24-537)
T1 construct: extracellular domain; Expressed in HEK 293 cells; Biotinylated in the capture ELISAs; also called soluble EphA2 Fc fusion protein; not shown: Fc portion of a human IgG1
TEST_DESCRIPTION: SPR (BIAcore 3000), purified monomeric scFv, human EphA2
REPORTED_ENDPOINT: koff (s⁻¹)
One number for each entry, in s⁻¹.

| BINDER | koff, s⁻¹ |
| --- | --- |
| 4H5 VH-VL scFv humanized clone (scFv, Expressed with a C-terminal FLAG tag and His tag; also called 4H5 scFv; scFv 4H5) scFv: QVQLLESGGGLVQPGGSLRLSCAASGFTFSSYTMSWVRQAPGQALEWMGTISSGGTYTYYPDSVKGRFTISRDNAKNSLYLQMNSLRAEDTAVYYCAREAIFTYWGRGTLVTVSSGGGGSGGGGSGGGGSDIQLTQSPSSLSASVGDRVTITCKASQDINNYLSWYQQKPGQAPRLLIYRANRLVDGVPDRFSGSGYGTDFTLTINNIESEDAAYYFCLKYDVFPYTFGQGTKVEIK | 0.018 |
| parental anti-EphA2 scFv EA2 (scFv, The murine EA2 variable regions were cloned in the same manner as the 4H5 scFv (VH, linker, VL, FLAG, His); also called EA2 scFv; not shown: C-terminal FLAG tag and His tag) scFv: DVKLVESGGGLVKPGGSLKLSCAASGFTFSSYTMSWVRQTPEKRLEWVATISSGGTYTYYPDSVKGRFTISRDNAKNTLYLQMSSLKSEDTAMYYCTREAIFTYWGQGTLVTVSAGGGGSGGGGSGGGGSDIKMTQSPSSMYASLGERVTITCKASQDINNYLSWFQQKPGKSPKTLIYRANRLVDGVPSRFSGSGSGQDYSLTISSLEYEDMGIYYCLKYDEFPYTFGGGTKLEIK | 0.03 |

Pending binder:
Given the binder VH VL 12E2 scFv (scFv, FLAG and His tags as for 4H5 scFv) scFv: QVQLLESGGGLVQPGGSLRLSCAASGFTFSSYTMSWVRQAPGQALEWMGTISSRGTYTYYPDSVKGRFTISRDNAKNSLYLQMNSLRAEDTAVYYCAREAIFTYWGRGTLVTVSSGGGGSGGGGSGGGGSDIQLTQSPSSLSASVGDRVTITCKASQDINNYLSWYQQKPGQAPRLLIYRANRLFDGVPDRFSGSGYGTDFTLTINNIESEDAAYYFCLKYDRFPYTFGQGTKVEIK , what is its reported koff?
0.0041
